- assay-system: Recombinant human CSF1R kinase (Homo sapiens (Human), UniProt P07333)
- Sequence (P07333 20-972): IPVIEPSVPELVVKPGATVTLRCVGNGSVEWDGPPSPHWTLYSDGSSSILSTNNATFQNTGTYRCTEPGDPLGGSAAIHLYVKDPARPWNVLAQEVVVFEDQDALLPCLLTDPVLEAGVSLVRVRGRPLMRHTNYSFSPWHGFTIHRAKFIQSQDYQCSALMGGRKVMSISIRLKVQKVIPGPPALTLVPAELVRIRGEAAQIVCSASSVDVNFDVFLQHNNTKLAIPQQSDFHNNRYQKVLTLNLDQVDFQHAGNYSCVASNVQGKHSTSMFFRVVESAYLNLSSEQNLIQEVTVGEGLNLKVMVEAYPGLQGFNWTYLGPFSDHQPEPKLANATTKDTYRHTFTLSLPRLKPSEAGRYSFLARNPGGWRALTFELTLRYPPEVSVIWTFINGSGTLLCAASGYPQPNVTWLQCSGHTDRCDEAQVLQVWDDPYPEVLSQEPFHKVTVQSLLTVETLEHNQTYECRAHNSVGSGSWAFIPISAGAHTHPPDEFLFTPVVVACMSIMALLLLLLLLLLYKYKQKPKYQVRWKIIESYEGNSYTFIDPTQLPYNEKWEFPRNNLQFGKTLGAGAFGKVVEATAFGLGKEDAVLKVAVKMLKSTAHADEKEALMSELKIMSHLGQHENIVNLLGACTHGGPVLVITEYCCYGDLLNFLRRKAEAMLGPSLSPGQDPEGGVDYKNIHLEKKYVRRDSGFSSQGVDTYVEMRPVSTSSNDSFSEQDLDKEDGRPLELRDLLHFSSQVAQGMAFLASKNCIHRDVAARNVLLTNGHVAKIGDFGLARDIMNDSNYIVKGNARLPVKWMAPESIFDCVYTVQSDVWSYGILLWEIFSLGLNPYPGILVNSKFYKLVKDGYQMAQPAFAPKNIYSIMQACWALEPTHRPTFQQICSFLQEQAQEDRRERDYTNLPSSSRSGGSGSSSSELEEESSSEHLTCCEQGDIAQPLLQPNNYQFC
- method-summary: Measurement of CSF1R kinase activity at molecular level (Z-LYTE)
- conditions-used: Z-LYTE Tyr 1 peptide
pIC50: −log10 of the molar value.
property-name: pIC50

Check out these entries, answers already filled in.
> print(dat)
                                    compound  property.name  recorded.value
 1  COc1cc(Oc2ccc3ncn(C)c(=O)c3c2)cnc1OCc1ccc(C2CC2)cc1          pIC50            7.66
 2  Cn1cc(-c2cc(Oc3cnc4c(c3)O[C@H](c3ccc(C5CC5)cc3)CO4)ccn2)cn1 (single isomer, unassigned) [Compound 49]          pIC50            7.64
 3  Cc1cnc2ccc(Oc3cnc4c(c3)OC[C@@H](c3ccc(C5CC5)cn3)O4)cn2c1=O          pIC50            8.10
 4  COc1ccc([C@H]2COc3cc(Oc4ccc5ncc(C)c(=O)n5c4)cnc3O2)nc1          pIC50            7.52
 5  COc1ccc(COc2ncc(Oc3ccc4ncc(N)c(=O)n4c3)cc2OC)cc1          pIC50            8.52
 6  Cn1cc(-c2cc(Oc3cnc4c(c3)OCC(c3ccc(C5CC5)nc3)O4)ccn2)cn1 (racemic) [Compound 53]          pIC50            8.52
 7  COc1ccc([C@@H]2COc3cc(Oc4ccc5nccc(=O)n5c4)cnc3O2)cn1          pIC50            7.77
 8  COc1ccc(COc2ncc(Oc3ccc4ncc(N5CCOCC5)c(=O)n4c3)cc2OC)cc1          pIC50            8.22
 9  COc1cccc(CCOc2ncc(Oc3ccc4ncc(C)c(=O)n4c3)cc2OC)c1          pIC50            7.82
10  COc1ccc(COc2ncc(Oc3ccc4ncc(C)c(=O)n4c3)cc2OC)cc1          pIC50            8.15

(a) COc1ccc(COc2ncc(Oc3ccc4ncc(C)c(=O)n4c3)cc2C#N)cc1
(b) Cc1cnc2ccc(Oc3cnc4c(c3)OC[C@H](c3ccc(C5CC5)cc3)O4)cn2c1=O
Query: // compare measured pIC50 between a and b ; output the lower one Give the label under which the chosen entry appears.
Reply: a
(a: 6.34, b: 7.92)

(a) O=c1ccnc2ccc(Oc3cnc4c(c3)OC[C@H](c3ccc(C5CC5)nc3)O4)cn12
(b) Cc1cnc2ccc(Oc3cnc4c(c3)OC[C@H](c3ccc(C5CC5)cn3)O4)cn2c1=O
Query: Given the two records a and b , choose the one whose pIC50 value is lower. Output the label that corresponds to your choice.
Reply: b
(b: 7.82, a: 8.22)

* * *

- assay-system: Recombinant human CSF1R kinase (Homo sapiens (Human), UniProt P07333)
- method-summary: Measurement of CSF1R kinase activity at molecular level (Z-LYTE)
- conditions-used: Z-LYTE Tyr 1 peptide
pIC50: −log10 of the molar value.
property-name: pIC50

> print(dat)
                                   compound  recorded.value
1  COc1cc(Oc2ccc3ncc(C)c(=O)n3c2)cnc1OCc1ccc(C(C)C)cc1 [Compound 8]            7.17
2  COc1ccc([C@@H]2COc3cc(Oc4ccc5ncc(C)c(=O)n5c4)cnc3O2)nc1 [Compound 80]            7.89
3  COc1ccc([C@@H]2COc3cc(Oc4ccc5ncc(C)c(=O)n5c4)cnc3O2)cc1 [Compound 65]            8.30
4  C#Cc1ccc(COc2ncc(Oc3ccc4ncc(C)c(=O)n4c3)cc2OC)cc1 [Compound 7]            7.82
5  O=c1ccnc2ccc(Oc3cnc4c(c3)OC[C@H](c3ccc(C5CC5)cn3)O4)cn12 [Compound 71]            7.52

(1) COc1cc(Oc2ccc3ncc(C)c(=O)n3c2)cnc1OCCc1ccccc1 [Compound 40]
(2) COc1cc(Oc2ccc3ncc(C)c(=O)n3c2)cnc1OCc1ccccc1 [Compound 43]
Query: I'd appreciate it if you could identify which of 1 and 2 has the greater pIC50. Selection: enter the item's label.
Reply: 2
(2: 8.40, 1: 7.48)
